# test_details: Toxicity liver stage against HepG2, at 10uM
# Type: cell-based
# Design: test concentration 10 uM, cell line HepG2-A16-CD81EGFP
# applied_conditions: human, HepG2-A16-CD81EGFP cells; read-out: INHIBITION
assay_endpoint: cytotoxicity at 10 µM (%)
Field format: number, assumed %, no unit text.

CN(Cc1cn2c(n1)CN(C(=O)N(C)C)CC2)Cc1ccco1 ... 4.44

Kindly consider the entry below.
Reported cytotoxicity at 10 µM ( C=C(C)CN1CCCC(CNS(C)(=O)=O)C1 (configuration not stated) ) = 5.63

* * *

# test_details: Toxicity liver stage against HepG2, at 10uM
# Assay type: cell-based
# Set-up: test concentration 10 uM, cell line HepG2-A16-CD81EGFP
# applied_conditions: human, HepG2-A16-CD81EGFP cells; read-out: INHIBITION
assay_endpoint: cytotoxicity at 10 µM (%)
Field format: number, assumed %, no unit text.

For orientation, consider the following solved cases.
CC(C)(C)n1ncc2c1CCCC2NCc1ccc2ncccc2c1 (centres undefined) ... 7.74
CC(Cn1cccn1)NC(=O)NCc1cccs1 (centres undefined) ... -0.12
CCC(Oc1ccccc1)c1nn2c(CN(CC)CC)nnc2s1 (centres undefined) ... 4.91
COc1c(C)cnc(CN2CCOC(Cn3nc(C)nc3C)C2)c1C (centres undefined) ... -13.1
O=C(N[C@@H]1CCN(Cc2cc3ccccc3s2)C[C@H]1O)c1cccnc1 ... -7.57

Reported cytotoxicity at 10 µM ( NC(=O)N1CCCCCC1C1CCN(c2nccc(C(F)(F)F)n2)CC1 (centres undefined) ) = 4.82

Reported cytotoxicity at 10 µM ( Cc1cncc(C(=O)N2CCCCC2c2nc(C)cs2)c1 (centres undefined) ) = -3.66

Reported cytotoxicity at 10 µM ( `O=S(=O)(c1cccnc1)N1CCN(Cc2nc(-c3cccs3)cs2)CC1` ) = 27.8

Reported cytotoxicity at 10 µM ( `CCN(CC)C(=O)Cc1csc(C(C)C)n1` ) = -1.55

Reported cytotoxicity at 10 µM ( `Cc1nccc(N(C)Cc2ncc(-c3ccccc3C(=O)O)s2)n1` ) = 1.31

Reported cytotoxicity at 10 µM ( `Cc1noc([C@]23COC[C@H]2CN(C(=O)CN(C)C)C3)n1` ) = -104

Reported cytotoxicity at 10 µM ( COC(=O)C1CN(Cc2cc(F)ccc2Br)CCO1 (centres undefined) ) = -5.51

Reported cytotoxicity at 10 µM ( `CN(C)C(=O)COC[C@@]12CCC[C@@H]1CN(C1CCC1)C2` ) = -1.25
